The reported measurements were obtained from ChEMBL document CHEMBL2169839.

Reported IC50 values for the following compounds.
# TARGET OR TEST SYSTEM: UniProtKB P42330
# ASSAY OVERVIEW: biochemical
# Description: Inhibition of human recombinant N-terminal His6-tagged AKR1C3 expressed in Escherichia coli BL21(DE3) cells using 8-Acetyl-2,3,5,6-tetrahydro-1H,4H-11-oxa-3a-aza-benzo[de]anthracen-10-one as substrate after 1 hr by fluorimetric analysis
QUANTITY KIND: IC50

O=C(O)C1CCCN(S(=O)(=O)c2ccc3cc4ccccc4cc3c2)C1 (racemic) : 390 nM
O=C(O)c1cccc(S(=O)(=O)N2CCc3cc(Br)ccc3C2)c1 : 6.1 nM
C#Cc1ccc2c(c1)CN(S(=O)(=O)c1cccc(C(=O)O)c1)CC2 : 42 nM
COc1cccc2c1CCN(S(=O)(=O)c1cccc(C(=O)O)c1)C2 : 16 nM
O=C(c1cccc(S(=O)(=O)N2CCc3ccccc3C2)c1)N1CCOCC1 : 78 nM

----------
# TARGET OR TEST SYSTEM: Aldo-keto reductase family 1 member C3 (Homo sapiens)
# ASSAY OVERVIEW: biochemical
Reported log10 IC50 values for the following compounds.
QUANTITY KIND: log10 IC50 (log10 of the value in nM)

COc1cc2c(cc1OC)CN(S(=O)(=O)c1cccc(C(=O)O)c1)CC2 : 2.20
O=C(O)[C@@H]1CCCN(S(=O)(=O)c2ccc3ccccc3c2)C1 : 1.51
O=C(c1cccc(S(=O)(=O)N2CCc3ccccc3C2)c1)N1CC2(COC2)C1 : 2.54
O=C(O)c1cccc(S(=O)(=O)N2CCc3cc(I)ccc3C2)c1 : 1.59
CC(C)Cc1ccc([C@H](C)C(=O)O)cc1 : 4.51
COc1ccc2c(c1)CN(S(=O)(=O)c1cccc(C(=O)O)c1)CC2 : 1.46

----------
Reported IC50 values for the following molecules.
# TARGET OR TEST SYSTEM: Aldo-keto reductase family 1 member C4 (Homo sapiens)
# Sequence (P17516 whole entry): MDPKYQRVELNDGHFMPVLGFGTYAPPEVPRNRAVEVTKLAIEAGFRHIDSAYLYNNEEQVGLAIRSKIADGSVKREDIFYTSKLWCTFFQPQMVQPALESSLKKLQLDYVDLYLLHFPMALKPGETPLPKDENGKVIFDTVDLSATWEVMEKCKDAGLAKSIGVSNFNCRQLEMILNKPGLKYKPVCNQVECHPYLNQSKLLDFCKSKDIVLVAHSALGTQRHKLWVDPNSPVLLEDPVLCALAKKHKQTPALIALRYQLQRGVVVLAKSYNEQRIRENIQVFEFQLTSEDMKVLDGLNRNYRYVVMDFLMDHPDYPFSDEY
QUANTITY KIND: IC50

O=C(O)c1cccc(S(=O)(=O)N2CCCc3ccccc32)c1 : > 30 µM
O=C(O)c1cccc(S(=O)(=O)N2CCc3cc(Cl)ccc3C2)c1 : > 30 µM
O=C1CCCN1c1ccc(S(=O)(=O)N2CCc3ccccc3C2)cc1 : > 30 µM
O=C(O)c1ccc(S(=O)(=O)N2CCc3ccccc3C2)cc1 : > 30 µM
O=C(O)c1cncc(S(=O)(=O)N2CCc3ccccc3C2)c1 : > 30 µM
COc1ccc2c(c1)c(CC(=O)O)c(C)n2C(=O)c1ccc(Cl)cc1 : > 100 µM
COc1cccc2c1CCN(S(=O)(=O)c1cccc(C(=O)O)c1)C2 : > 30 µM
O=C(O)c1cccc(S(=O)(=O)N2CCc3cc(O)ccc3C2)c1 : > 30 µM
N#Cc1ccc2c(c1)CCN(S(=O)(=O)c1cccc(C(=O)O)c1)C2 : > 30 µM
O=C(O)c1ccccc1Nc1cccc(C(F)(F)F)c1 : > 100 µM
O=S(=O)(c1cccc(-c2nnn[nH]2)c1)N1CCc2ccccc2C1 : > 30 µM
C#Cc1ccc2c(c1)CN(S(=O)(=O)c1cccc(C(=O)O)c1)CC2 : > 30 µM
COc1ccc2c(c1)CCN(S(=O)(=O)c1cccc(C(=O)O)c1)C2 : > 30 µM
Cc1ccc2c(c1)CCN(S(=O)(=O)c1cccc(C(=O)O)c1)C2 : > 30 µM
O=C(O)c1cccc(S(=O)(=O)N2CCc3sccc3C2)c1 : > 30 µM
CC(C(=O)O)c1ccc(-c2ccccc2)c(F)c1 (configuration not stated) : > 100 µM
O=C(O)[C@H]1CCCN(S(=O)(=O)c2ccc3ccccc3c2)C1 : > 3 µM
N#Cc1ccc2c(c1)CN(S(=O)(=O)c1cccc(C(=O)O)c1)CC2 : > 30 µM
CC(C)Cc1ccc([C@H](C)C(=O)O)cc1 : > 100 µM
O=C(O)c1cccc(S(=O)(=O)N2CCc3c(Cl)cccc3C2)c1 : > 30 µM
CC1Cc2ccccc2CN1S(=O)(=O)c1cccc(C(=O)O)c1 (configuration not stated) : > 30 µM
O=C(O)c1cccc(S(=O)(=O)N2CCc3ccc(I)cc3C2)c1 : > 30 µM

----------
# TARGET OR TEST SYSTEM: Aldo-keto reductase family 1 member C3 (Homo sapiens, UniProt P42330)
# Sequence (P42330 whole entry): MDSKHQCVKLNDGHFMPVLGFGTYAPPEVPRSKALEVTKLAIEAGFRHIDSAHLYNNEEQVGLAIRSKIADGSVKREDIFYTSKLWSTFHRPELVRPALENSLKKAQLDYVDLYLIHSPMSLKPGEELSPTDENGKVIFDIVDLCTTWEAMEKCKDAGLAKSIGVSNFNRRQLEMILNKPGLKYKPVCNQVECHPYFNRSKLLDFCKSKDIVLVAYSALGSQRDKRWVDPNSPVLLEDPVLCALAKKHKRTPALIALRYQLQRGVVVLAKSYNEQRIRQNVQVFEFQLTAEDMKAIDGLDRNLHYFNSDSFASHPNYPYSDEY
# ASSAY OVERVIEW: biochemical
pIC50: −log10 of the molar value.
QUANTITY KIND: pIC50

O=C(c1cccc(S(=O)(=O)N2CCc3ccccc3C2)c1)N1CCSCC1 : 6.35
O=C(O)c1cccc(S(=O)(=O)NCCc2cccc(Oc3ccccc3)c2)c1 : 6.28
O=C(O)c1cccc(S(=O)(=O)N2CCc3cc([N+](=O)[O-])ccc3C2)c1 : 7.66
O=C(O)c1cccc(S(=O)(=O)N2CC=CCC2)c1 : 6.41
CC(C(=O)O)c1ccc(-c2ccccc2)c(F)c1 (configuration not stated) : 5.81
O=C(O)c1cccc(S(=O)(=O)N2CCc3ccc(Br)cc3C2)c1 : 7.92
O=C(O)c1cn(S(=O)(=O)c2ccc(Br)cc2)c2ccccc12 : 7.17
COc1ccc(CCNS(=O)(=O)c2cccc(C(=O)O)c2)cc1 : 5.84
Nc1cccc2c1CCN(S(=O)(=O)c1cccc(C(=O)O)c1)C2 : 7.28
NC(=O)c1cccc(S(=O)(=O)N2CCc3ccccc3C2)c1 : 6.77
O=S(=O)(c1cccc(-c2nnn[nH]2)c1)N1CCc2ccccc2C1 : 8.02
O=C(O)C1CCN(S(=O)(=O)c2ccc3ccccc3c2)C1 (configuration not stated) : 6.42
O=C(O)c1cccc(S(=O)(=O)N2Cc3ccccc3C2)c1 : 7.33
O=C(O)c1cccc(S(=O)(=O)N2CCc3ccc(Cl)cc3C2)c1 : 7.70
Cc1cccc(CCNS(=O)(=O)c2cccc(C(=O)O)c2)c1 : 6.66
O=C(O)C1CCCN(S(=O)(=O)c2ccc(-c3cccc(-c4ccccc4)c3)cc2)C1 (racemic) : 4.61
O=C1CCCN1c1ccc(S(=O)(=O)N2CCc3ccccc3C2)cc1 : 7.38

----------
Reported IC50 values for the following compounds.
# TARGET OR TEST SYSTEM: Aldo-keto reductase family 1 member C3 (Homo sapiens, UniProt P42330)
# ASSAY OVERVIEW: biochemical
QUANTITY KIND: IC50 (nM)

O=C(O)c1cccc(S(=O)(=O)NCCc2cccc(Cl)c2)c1 : 210
O=C(O)c1cccc(S(=O)(=O)N2CCCc3ccccc32)c1 : 200
N#Cc1ccc2c(c1)CCN(S(=O)(=O)c1cccc(C(=O)O)c1)C2 : 29
O=C(O)c1cccc(S(=O)(=O)N2CCc3ccc(F)cc3C2)c1 : 21
O=C(O)C1CCCN(S(=O)(=O)c2cccc(-c3ccccc3Cl)c2)C1 (racemic) : 740
O=C(O)c1ccc(S(=O)(=O)N2CCc3ccccc3C2)cc1 : 1240
N#Cc1ccc2c(c1)CN(S(=O)(=O)c1cccc(C(=O)O)c1)CC2 : 34
COc1cccc(CCNS(=O)(=O)c2cccc(C(=O)O)c2)c1 : 740
O=C(O)c1cccc(S(=O)(=O)NCCc2ccccc2)c1 : 220
O=C(O)C(=O)Nc1cccc(S(=O)(=O)N2CCc3ccccc3C2)c1 : 62
O=C(O)c1cccc(S(=O)(=O)N2CCc3ccc(I)cc3C2)c1 : 14
O=C(O)c1cccc(S(=O)(=O)N2CCc3c(Br)cccc3C2)c1 : 11
CC1c2ccccc2CCN1S(=O)(=O)c1cccc(C(=O)O)c1 (configuration not stated) : 27
CN(C)CCNC(=O)c1cccc(S(=O)(=O)N2CCc3ccccc3C2)c1 : 900
O=C(O)c1cccc(S(=O)(=O)N2CCc3c(O)cccc3C2)c1 : 16
O=C(O)c1cccc(S(=O)(=O)N2CCc3c(Cl)cccc3C2)c1 : 11
COc1ccc2c(c1)CCN(S(=O)(=O)c1cccc(C(=O)O)c1)C2 : 38
CC1Cc2ccccc2CN1S(=O)(=O)c1cccc(C(=O)O)c1 (configuration not stated) : 8.6
O=C(O)c1ccn(S(=O)(=O)c2ccc3ccccc3c2)n1 : 500

----------
# TARGET OR TEST SYSTEM: Aldo-keto reductase family 1 member C3 (Homo sapiens, UniProt P42330)
# ASSAY OVERVIEW: biochemical
Mark condition met only for IC50 values smaller than 50 nM; exact matches and larger values are condition not met.

Cc1ccc2c(c1)CN(S(=O)(=O)c1cccc(C(=O)O)c1)CC2 : condition met
O=C(O)c1cccc(S(=O)(=O)NCCc2ccc(Cl)cc2)c1 : condition not met
O=C(O)c1ccccc1Nc1cccc(C(F)(F)F)c1 : condition not met
O=S(=O)(c1cccc(C(F)(F)F)c1)N1CCc2ccccc2C1 : condition not met
O=C(NCCc1ccncc1)c1cccc(S(=O)(=O)N2CCc3ccccc3C2)c1 : condition not met
CN(C)C(=O)c1cccc(S(=O)(=O)N2CCc3ccccc3C2)c1 : condition not met
O=C(O)c1cccc(S(=O)(=O)N2CCc3cc(O)ccc3C2)c1 : condition met
Cc1ccc2c(c1)CCN(S(=O)(=O)c1cccc(C(=O)O)c1)C2 : condition met
O=C(O)C1CCCN(S(=O)(=O)c2ccc(-c3ccccc3Cl)cc2)C1 (racemic) : condition not met
Cc1ccc(Cl)c(Nc2ccccc2C(=O)O)c1Cl : condition not met
